# System: SNB-19 CNS
# procedure.details: NCI-60 one-dose screen, 48 h
# run.conditions: 10 µM unless noted
The panel holds about 83,000 compounds, 20% with a hit somewhere; the sample as a whole holds those more often. Activity calls are given as the source filed them. The calls were made as follows: active = growth percent below 10; inactive = the rest.
Could you please pick one outcome from this set? active, inactive

**Query** For `CCOC(=O)C1=C(C)NC(SCc2cc(=O)oc3ccc(F)cc23)=N[C@@H]1c1cccc2ccccc12` , which call appears in the assay record?
**Result** inactive

**Query** Again, but for `COc1ccc(-c2cnc3c(-c4cccc5cnccc45)cnn3c2)cc1`
**Result** inactive

**Query** Note, next up: COc1cc(C2C3=C(COC3=O)N(CCO)c3cc4c(cc32)CCC4)cc(OC)c1OC (stereo not given)
**Result** active

**Query** How about `CCCNC(=O)Oc1ccc(/C(=C(\C)c2ccccc2)c2ccc(OCCCN(C)C)cc2)cc1` ?
**Result** inactive

**Query** Moving on to O=[N+]([O-])CC(c1ccccc1)c1c[nH]c2ccccc12 (stereo not given)
**Result** inactive
